Assay: chemical genetic growth profiling, strain panel (AID 1159580);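 note: tested at 20 µM; growth read once vehicle control cultures reached saturation at 30 °C; 1 = growth at the plate median or of vehicle wells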
Conditions: S. cerevisiae deletion strains, growth OD, locus YPR119W, strain clb2, stronger effect = lower value
Among all 5,500 compounds or so, about 2,000 (36%) were called active. Not shown: some 18% with an inconclusive outcome. Some of the results follow.

| COMPOUND | normalized growth |
| --- | --- |
| Cc1cc(-c2ccccc2)nnc1NCCN1CCOCC1 | 0.98 |
| C#CCCCCCCCCCCCC(O)CC(O)CO (configuration not stated) | 1.01 |
| CC[C@H](C)C(=O)O[C@H]1CCC=C2C=C[C@H](C)C(CCC3C[C@@H](O)CC(=O)O3)[C@H]21 (some centres not stated) | 0.979 |
| COC(=O)C[C@H]1C(C)(C)C(=O)[C@@H]2CC3=C(CC[C@]4(C)C3=CC(=O)O[C@H]4c3ccoc3)[C@@]1(C)C2=O | 1.01 |
| CC(=O)N[C@@H](CS)C(=O)O | 1.02 |
| NC(N)=NS(=O)(=O)c1ccc(N)cc1 | 0.994 |
| C=CCCCCCCCCCCCC(O)CC(O)COC(C)=O (configuration not stated) (tested in a mixture with another compound) | 0.982 |

----------
Assay: chemical genetic growth profiling, strain panel (AID 1159580)
Conditions: S. cerevisiae deletion strains, growth OD, locus YEL003W, strain gim4
The whole screen tested about 5,500 compounds, of which about 2,000 (36%) were called active. Roughly 18% stayed inconclusive and do not appear here. No stated cut-off is given here; in the data, active means normalized growth mostly below about 0.91 (no sharp cut-off); inconclusive means no clear call, values can overlap the other calls; inactive means mostly above about 0.92. Some of the results follow.
Outcomes: active, inactive

| COMPOUND | DISCRETE LABEL |
| --- | --- |
| CC[C@H](C)C(=O)O[C@H]1C[C@@H](C)C=C2C=C[C@H](C)[C@H](CC[C@@H]3C[C@@H](O)CC(=O)O3)[C@H]21 | inactive |
| CC(C)NNC(=O)c1ccncc1 | inactive |
| CCCCC(=O)Oc1ccccc1C(=O)O | inactive |
| COc1ccc([C@H]2Oc3cc(OC)cc(OC)c3C[C@H]2O)cc1 | inactive |
| CCCCOC(=O)c1ccccc1C(=O)OCCCC | inactive |
| C=C1C(=O)OC2CC1C(OC(C)=O)C/C(C)=C/CC/C(C)=C/CC[C@]2(C)O (stereo partly specified) | inactive |
| C=CCCCCCCCCCCCC(O)CC(O)COC(C)=O (stereo unspecified) (tested in a mixture with another compound) | inactive |
| CCCCCCOc1ccccc1C(N)=O | active |
| CCC(C)(C)C(=O)O[C@H]1C[C@@H](C)C=C2C=C[C@H](C)[C@H](CC[C@@H]3C[C@@H](O)CC(=O)O3)[C@H]21 | inactive |
| O=C(Cn1ccnc1[N+](=O)[O-])NCCO | inactive |
| C#CCCCCCCCCCCCC(=O)CC(O)COC(C)=O (stereo unspecified) | inactive |
| COc1ccc2c(c1OC)C(=O)OC2[C@H]1c2c(cc3c(c2OC)OCO3)CCN1C (stereo partly specified) | inactive |
| CCC(C)C(=O)O[C@H]1C[C@H](O)C=C2C=C[C@H](C)[C@H](CC[C@@H](O)C[C@@H](O)CC(=O)O)C21 (stereo partly specified) | inactive |
| CCOC(=O)Nc1nc2ccccc2[nH]1 | inactive |
| CC[N+](CC)(CC)CCOc1cccc(OCC[N+](CC)(CC)CC)c1OCC[N+](CC)(CC)CC | inactive |
| C[C@H]1CC[C@@H](C(C)(C)O)CC2=C1CC[C@@H]2C | inactive |

----------
# Lookup of reported normalized growth keyed by entry
Assay: chemical genetic growth profiling, strain panel (AID 1159580)
Conditions: S. cerevisiae deletion strains, growth OD, locus YMR001C, strain CDC5, stronger effect = lower value
About 2,000 (36%) of roughly 5,500 compounds were called active. About 18% were inconclusive and are not listed. The list shows a part of the results.

| MOLECULE | normalized growth |
| --- | --- |
| CC1(C)OC(=O)C(=Cc2cccn2-c2ccc(OC(F)(F)F)cc2)C(=O)O1 | 0.97 |
| O=[N+]([O-])c1ccc2oc(C(O)c3ccc(-c4ccccc4)cc3)cc2c1 (stereo not drawn) | 0.982 |
| Cc1c(C(=S)Nc2ccccc2)sc2ccccc12 | 0.938 |

----------
Assay: chemical genetic growth profiling, strain panel (AID 1159580);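 note: tested at 20 µM; growth read once vehicle control cultures reached saturation at 30 °C; 1 = growth at the plate median or of vehicle wells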
Settings: S. cerevisiae deletion strains, growth OD, locus YNL250W, strain rad50, stronger effect = lower value
About 2,000 (36%) of roughly 5,500 compounds were called active. Roughly 18% stayed inconclusive and do not appear here. The list shows a part of the results.
QUANTITY KIND: normalized growth

| COMPOUND | MEAS VALUE |
| --- | --- |
| O=C(Cn1ccnc1[N+](=O)[O-])NCCO | 0.99 |
| Nc1ccc(N=Nc2ccccc2)c(N)n1 | 1.02 |
| Cc1cc(-c2ccccc2)nnc1NCCN1CCOCC1 | 0.98 |
| Cc1ccc(Cl)c(Nc2ccccc2C(=O)O)c1Cl | 0.993 |
| CC(=O)OC1CCC2(C)C(=CC=C3C2CCC2(C)C3CCC2C(C)/C=C/C(C)C(C)C)C1(C)C (configuration not stated) | 0.99 |
| C#CCCCCCCCCCCCC(=O)CC(O)COC(C)=O (configuration not stated) | 0.989 |
| CCCNC1CCc2nc(N)sc2C1 (configuration not stated) | 0.996 |

----------
# Lookup of reported normalized growth keyed by entry
Experiment: chemical genetic growth profiling, strain panel (AID 1159580);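 note: tested at 20 µM; growth read once vehicle control cultures reached saturation at 30 °C; 1 = growth at the plate median or of vehicle wells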
Settings: S. cerevisiae deletion strains, growth OD, locus YCL029C, strain bik1, stronger effect = lower value
Screen size: about 5,500 compounds; about 2,000 (36%) were called active. Another 18% or so got no clear call; they are omitted. Some of the results follow.

| COMPOUND | normalized growth |
| --- | --- |
| COc1cc([C@@H]2c3cc4c(c(O)c3C[C@H]3COC(=O)[C@@H]32)OCO4)cc(OC)c1OC | 0.978 |
| COc1ccc([C@H]2Oc3cc(OC)cc(OC)c3C[C@H]2O)cc1 | 1.01 |
| CC1(C)OC(=O)C=CC2(C)C1CC(O)C1(C)C2CCC2(C)C(c3ccoc3)OC(=O)C3OC321 (stereo not given) | 1.02 |
| Oc1ccc2c(c1)OCC1c3cc4c(cc3OC21)OCO4 (stereo not given) | 0.946 |
| COc1ccc2c(c1OC)C(=O)OC2[C@H]1c2c(cc3c(c2OC)OCO3)CCN1C (stereo not given in full) | 0.987 |
| CCC(C)c1cnc(CC(C)C)c(=O)n1O (stereo not given) | 1.02 |
| O=C1[C@H](CCC(O)c2ccc(F)cc2)[C@@H](c2ccc(O)cc2)N1c1ccc(F)cc1 (stereo not given in full) | 0.968 |
| C=C1CCC2C(CC2(C)C)C(=C)CC/C1=N\O (stereo not given) | 0.983 |
| Cc1cc(NC(=O)C2=C(O)c3ccccc3S(=O)(=O)N2C)no1 | 0.958 |
| C=C1CCC(OC(C)=O)/C(C)=C/C[C@@H]2[C@@H]1CC2(C)C (stereo not given in full) | 1.03 |
| CC1(C)C2(Cl)C(Cl)C(Cl)C(Cl)(C(Cl)Cl)C1(Cl)C2Cl (stereo not given) | 0.982 |
| C=C1CCC(C2CC(=O)OC2=O)C(=O)CCC2C1CC2(C)C (stereo not given) | 1.02 |
| O=C(Cn1ccnc1[N+](=O)[O-])NCCO | 1.02 |
| O=C1NC(=O)C(=O)C(=O)N1 | 0.984 |
| C/C1=C\CCC(=O)C2CC(C)(C)C2CC1 (stereo not given) | 1.03 |

----------
# Lookup of reported normalized growth keyed by entry
Test: chemical genetic growth profiling, strain panel (AID 1159580);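 note: tested at 20 µM; growth read once vehicle control cultures reached saturation at 30 °C; 1 = growth at the plate median or of vehicle wells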
Conditions: S. cerevisiae deletion strains, growth OD, locus YER155C, strain BEM2, stronger effect = lower value
About 2,000 (36%) of roughly 5,500 compounds were called active. About 18% were inconclusive and are not listed. This is one part of the list.
QUANTITY KIND: normalized growth

| MOLECULE | QUANTITY KIND | MEAS VALUE |
| --- | --- | --- |
| COc1ccc2c(c1)CCC(c1ccccc1)=C2c1ccc(OCCN2CCCC2)cc1 | normalized growth | 0.961 |
| CC(C)C(=O)Nc1ccc([N+](=O)[O-])c(C(F)(F)F)c1 | normalized growth | 0.985 |
| C/C1=C\CCC(=O)C2CC(C)(C)C2CC1 (stereo unspecified) | normalized growth | 1.01 |
| CC(C)COCC(CN(Cc1ccccc1)c1ccccc1)N1CCCC1 (stereo unspecified) | normalized growth | 1.02 |
| Cc1c(Cl)cccc1Nc1ccccc1C(=O)O | normalized growth | 0.684 |
| CC1(C)C2CC(=O)[C@]3(C)C(CC[C@@]4(C)[C@H](c5ccoc5)OC(=O)[C@H]5O[C@]543)[C@@]2(C)C=C[C@@H]1O (stereo partly specified) | normalized growth | 1.01 |
